Biological target: T1, ferroportin tagged at the C-terminus with green fluorescent protein (ECR293/Fpn-GFP cells)
T1 sequence (Q9NP59 whole entry, species assumed, looked up): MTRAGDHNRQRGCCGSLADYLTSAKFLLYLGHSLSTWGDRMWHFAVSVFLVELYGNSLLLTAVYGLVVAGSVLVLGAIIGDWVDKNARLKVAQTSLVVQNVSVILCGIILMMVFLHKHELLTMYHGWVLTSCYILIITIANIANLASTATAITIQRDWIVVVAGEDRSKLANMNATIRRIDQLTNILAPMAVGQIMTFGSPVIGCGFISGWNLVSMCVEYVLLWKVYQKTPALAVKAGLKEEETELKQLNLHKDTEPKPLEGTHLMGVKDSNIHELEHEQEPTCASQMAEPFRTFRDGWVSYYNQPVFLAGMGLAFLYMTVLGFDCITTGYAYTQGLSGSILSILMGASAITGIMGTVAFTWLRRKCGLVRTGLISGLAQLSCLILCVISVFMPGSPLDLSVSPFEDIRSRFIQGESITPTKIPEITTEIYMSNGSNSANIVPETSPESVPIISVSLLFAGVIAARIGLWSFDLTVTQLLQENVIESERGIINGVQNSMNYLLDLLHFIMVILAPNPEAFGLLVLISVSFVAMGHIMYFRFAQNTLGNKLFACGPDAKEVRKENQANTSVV
Test: cell-based or functional assay
Square brackets hold non-standard residues; d marks the D form. Ends that are not written are not given here. Dip = N[C@H](C(=O)O)C(c1ccccc1)c1ccccc1; β3hF = N[C@H](CC(=O)O)Cc1ccccc1; β3hP = O=C(O)C[C@@H]1CCCN1; Dpa = not defined here
I'd be grateful if you could share measured EC50 (nM); loss of fluorescence of Fpn-GFP cells, flow cytometry for these entries.
Provide the reading as a plain figure in nM.

Exam item: # query: EC50 (nM); loss of fluorescence of Fpn-GFP cells, flow cytometry of entry DTH[Dip]PCCC[Dip]-NH2 (also: any disulfide between the Cys residues not recoverable) [Pr46]
Marked response: 80

Exam item: # query: EC50 (nM); loss of fluorescence of Fpn-GFP cells, flow cytometry of entry DTHFPICI[β3hF]PPK-NH2 [Pr19]
Marked response: 700

Exam item: # query: EC50 (nM); loss of fluorescence of Fpn-GFP cells, flow cytometry of entry DTHFPICI[β3hF]P[β3hP]K-NH2 [Pr21]
Marked response: 500

Exam item: # query: EC50 (nM); loss of fluorescence of Fpn-GFP cells, flow cytometry of entry DTHFPICI[β3hF]P[β3hP]R-NH2 [Pr22]
Marked response: 600

Exam item: # query: EC50 (nM); loss of fluorescence of Fpn-GFP cells, flow cytometry of entry D[Dpa]PICIF-NH2 (reading uncertain) [Pr40]
Marked response: 70

Attribution: patent US20120040894A1
